The reported measurements were obtained from patent US20220195068A1.

Target: T1, human PSMA (Prostate Specific Membrane Antigen, Glutamate Carboxypeptidase II) on cells (human, UniProt Q04609 1-750)
T1 construct: whole, on cells; the cell line is named under assay; also called cell surface expressed PSMA; FOLH1
T1 sequence (Q04609 whole entry): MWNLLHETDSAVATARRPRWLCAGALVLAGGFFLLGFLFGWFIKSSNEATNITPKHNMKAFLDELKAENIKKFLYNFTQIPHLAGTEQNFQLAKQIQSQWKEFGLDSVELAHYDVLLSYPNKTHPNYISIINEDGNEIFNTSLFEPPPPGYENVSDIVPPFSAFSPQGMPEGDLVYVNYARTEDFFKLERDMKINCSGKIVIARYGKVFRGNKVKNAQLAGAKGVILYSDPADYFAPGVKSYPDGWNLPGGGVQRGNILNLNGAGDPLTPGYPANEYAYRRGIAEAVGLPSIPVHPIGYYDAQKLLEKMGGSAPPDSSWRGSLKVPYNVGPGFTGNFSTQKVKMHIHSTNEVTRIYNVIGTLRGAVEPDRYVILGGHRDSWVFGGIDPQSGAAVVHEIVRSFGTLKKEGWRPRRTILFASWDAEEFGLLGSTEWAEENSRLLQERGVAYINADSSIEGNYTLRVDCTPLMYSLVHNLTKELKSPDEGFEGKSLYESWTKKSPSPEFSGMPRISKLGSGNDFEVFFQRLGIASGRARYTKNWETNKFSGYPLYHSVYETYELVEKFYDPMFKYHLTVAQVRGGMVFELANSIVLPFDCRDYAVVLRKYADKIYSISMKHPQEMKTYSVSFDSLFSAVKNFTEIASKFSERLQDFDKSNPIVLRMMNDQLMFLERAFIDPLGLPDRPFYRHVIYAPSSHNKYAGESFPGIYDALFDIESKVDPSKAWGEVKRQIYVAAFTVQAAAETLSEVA
Test: flow cytometry on LNCaP cells
Observation Type: fold over the background MFI signal

{"Binder": "anti-PSMA heavy chain antibody clone ID 345497 (antibody, V domains shown, heavy chain-only antibody (UniAb), no light chain; also called HCAb 345497) VH: QVQLVESGGGVVQPGRSLRLSCAASGFSFSRYGMHWVRQAPGKGLEGVAVIWYDGSNRYYADSVKGRFTISRDNSKNTLYLQMNSLRAEDTAVYYCAREPRIGYYYESSGYYSLDYRGQGTLVTVSS", "fold over the background MFI signal": "112 fold over background"}

Prompt: Provide measured fold over the background MFI signal value, entry: anti-PSMA heavy chain antibody clone ID 346172 (antibody, V domains shown, heavy chain-only antibody (UniAb), no light chain) VH: QLQLQESGPGLVKPSETLSLTCTVSGGSISSSSYYWGWIRQPPGKGLEWIGSIDYSGYTYYNPSLKSRVTISVDTSKNQFSLKLSSVTAADTAVYNCARHKAATADFDYRGQGTLVTVSS
Completion: 216 fold over background
